experimental.protocol: Ratio of Cmax in CD-1 mouse liver to plasma at 10 mg/kg, ip administered as single dose after 24 hrs
Assay type: ADME, organism-based
quantity.kind: Kp at 24 h
Answer field: number only, no words.

-- ask Note down Kp at 24 h recorded for `Cc1oc(-c2ccc(Cl)c(Cl)c2)nc1CN1CCC(C(=O)NCCCN2C[C@H](C)C[C@H](C)C2)CC1`
-- reply 7

###

experimental.protocol: Tmax in CD-1 mouse liver at 0.1 mg/kg, ip administered as single dose after […] by UPLC-MS/MS method
Assay type: ADME, organism-based
quantity.kind: Tmax at […] (h)
# output: bare number, implied unit h

-- ask Note down Tmax at […] recorded for `Cc1oc(-c2ccc(Cl)c(Cl)c2)nc1CN1CCC(C(=O)NCCCN2C[C@H](C)C[C@H](C)C2)CC1`
-- reply 7
